molecular target: T7 RNA polymerase (Escherichia phage T7); assay: In vitro transcription yields of modified mRNA; format: biochemical; settings: GCSF mRNA made with the modified NTP(s)
PROPERTY MEASURED: GCSF In Vitro Transcription yield
In your response, the unit should come after the numeric value.

O=c1[nH]c(=S)ccn1[C@@H]1O[C@H](COP(=O)(O)OP(=O)(O)OP(=O)(O)O)C(O)C1O (stereo partly drawn) [00901013011 (2), 4-Thio-UTP]
0.0759 mg
COc1cn([C@@H]2O[C@H](COP(=O)(O)OP(=O)(O)OP(=O)(O)O)C(O)C2O)c(=O)[nH]c1=O (stereo in doubt) [Compound 00901013007, 5-methoxy-UTP]
0.1546 mg

Consider the additional compound presented here.
Could you share which GCSF In Vitro Transcription yield value was measured for O=c1[nH]c(=O)n([C@@H]2O[C@H](COP(=O)(O)OP(=O)(O)OP(=O)(O)O)C(O)C2O)cc1C(F)(F)F (stereo partly drawn) [00901013002 (352), 5-Trifluoromethyl-UTP] ?
0.5102 mg

====

system: Rabbit Reticulocyte Lysate; assay: In vitro translation screen, firefly Luciferase modRNA (luciferase assay, relative light units); type: biochemical; conditions: Table 20; 250 ng modRNA, 45 min, 30° C.
Kindly state Luc Expression (RLUs) for each of the entries shown.
In your response, the unit should come after the numeric value.

Record excerpt, results attached:
NC/C=C/c1cn([C@@H]2O[C@H](COP(=O)(O)OP(=O)(O)OP(=O)(O)O)C(O)C2O)c(=O)[nH]c1=O (stereo in doubt)
14870 RLUs
O=c1ccn([C@@H]2O[C@H](COP(O)(=S)OP(=O)(O)OP(=O)(O)O)C(O)C2O)c(=O)[nH]1 (stereo in doubt)
51180 RLUs
O=c1[nH]c(=S)[nH]cc1[C@@H]1O[C@H](COP(=O)(O)OP(=O)(O)OP(=O)(O)O)C(O)C1O (stereo in doubt)
2198 RLUs
Nc1ccn([C@@H]2O[C@H](COP(O)(=S)OP(=O)(O)OP(=O)(O)O)C(O)C2O)c(=O)n1 (stereo in doubt)
142900 RLUs

Could you share which Luc Expression (RLUs) value was measured for O=c1ccn([C@@H]2O[C@H](COP(=O)(O)OP(=O)(O)OP(=O)(O)O)C(O)C2O)c(=S)[nH]1 (stereo in doubt) ?
1181 RLUs

====

target: T7 RNA polymerase (Escherichia phage T7, UniProt P00573); assay: In vitro transcription yields of modified mRNA; type: biochemical; conditions: EPO mRNA made with the modified NTP(s)
Sequence (P00573 whole entry): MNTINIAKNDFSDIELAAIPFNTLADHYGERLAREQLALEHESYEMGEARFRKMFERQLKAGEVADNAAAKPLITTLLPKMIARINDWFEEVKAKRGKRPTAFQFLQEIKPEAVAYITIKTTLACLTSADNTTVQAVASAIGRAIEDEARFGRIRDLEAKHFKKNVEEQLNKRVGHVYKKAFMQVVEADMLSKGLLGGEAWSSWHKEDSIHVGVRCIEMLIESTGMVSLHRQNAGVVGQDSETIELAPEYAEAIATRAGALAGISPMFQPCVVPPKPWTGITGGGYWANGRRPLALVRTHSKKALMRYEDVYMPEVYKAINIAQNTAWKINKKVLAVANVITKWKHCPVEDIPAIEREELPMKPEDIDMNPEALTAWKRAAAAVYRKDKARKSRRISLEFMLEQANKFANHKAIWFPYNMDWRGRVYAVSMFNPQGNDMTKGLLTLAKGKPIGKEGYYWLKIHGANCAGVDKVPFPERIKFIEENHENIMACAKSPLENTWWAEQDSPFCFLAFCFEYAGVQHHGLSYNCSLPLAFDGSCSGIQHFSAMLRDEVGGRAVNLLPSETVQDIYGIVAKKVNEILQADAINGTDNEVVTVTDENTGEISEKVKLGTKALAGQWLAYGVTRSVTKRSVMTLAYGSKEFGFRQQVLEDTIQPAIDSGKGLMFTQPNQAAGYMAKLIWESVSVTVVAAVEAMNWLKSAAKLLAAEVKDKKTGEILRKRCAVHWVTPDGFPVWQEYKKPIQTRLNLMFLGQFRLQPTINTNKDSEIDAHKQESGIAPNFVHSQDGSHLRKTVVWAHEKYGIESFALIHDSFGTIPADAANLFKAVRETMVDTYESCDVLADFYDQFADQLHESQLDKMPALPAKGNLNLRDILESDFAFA
Label key: Yes means EPO In Vitro Transcription yield under 0.01 mg; No means EPO In Vitro Transcription yield of 0.01 mg or more.

Cc1cn([C@@H]2O[C@H](COP(=O)(O)OP(=O)(O)OP(=O)(O)O)C(O)C2O)c(=S)[nH]c1=O (stereo in doubt) [00901013004 (4), 5-Methyl-2-thio-UTP]
No
Nc1ncc2ncn([C@@H]3O[C@H](COP(=O)(O)OP(=O)(O)OP(=O)(O)O)C(O)C3O)c2n1 (stereo in doubt) [03601012004 (382), 2-Aminopurine-riboside TP]
No
Nc1ncnc2c1nnn2[C@@H]1O[C@H](COP(=O)(O)OP(=O)(O)OP(=O)(O)O)C(O)C1O (some centres unmarked) [00901011003 (377), 8-Aza-ATP]
Yes
O=c1[nH]c(=O)n(CC(F)(F)F)cc1[C@@H]1O[C@H](COP(=O)(O)OP(=O)(O)OP(=O)(O)O)C(O)C1O (some centres unmarked) [03601015005 (175), 1-(2,2,2-Trifluoroethyl) pseudo-UTP]
No

Below: the item to evaluate.
Is EPO In Vitro Transcription yield strictly under 0.01 mg for the entry NC/C=C/c1cn([C@@H]2O[C@H](COP(=O)(O)OP(=O)(O)OP(=O)(O)O)C(O)C2O)c(=O)[nH]c1=O (stereo in doubt) [Compound 00901013010, 5-Aminoallyl-UTP] ?
No

====

biological target: T7 RNA polymerase (Escherichia phage T7, UniProt P00573); experiment: In vitro transcription yields of modified mRNA; assay type: biochemical; conditions: GCSF mRNA made with the modified NTP(s)
PROPERTY MEASURED: GCSF In Vitro Transcription yield (mg)
One number for each entry, in mg.

Record excerpt, results attached:
Cn1c(=N)ccn([C@@H]2O[C@H](COP(=O)(O)OP(=O)(O)OP(=O)(O)O)C(O)C2O)c1=O (some centres unmarked)
0.0141
CCCn1cc([C@@H]2O[C@H](COP(=O)(O)OP(=O)(O)OP(=O)(O)O)C(O)C2O)c(=O)[nH]c1=O (stereo in doubt)
0.5976
COC(=O)Cc1cn([C@@H]2O[C@H](COP(=O)(O)OP(=O)(O)OP(=O)(O)O)C(O)C2O)c(=O)[nH]c1=O (stereo in doubt)
0.6475
Nc1ccn([C@@H]2O[C@H](COP(O)(=S)OP(=O)(O)OP(=O)(O)O)C(O)C2O)c(=O)n1 (stereo in doubt)
0.2650

Could you share which GCSF In Vitro Transcription yield value was measured for O=c1[nH]c(=O)n(CC(F)(F)F)cc1[C@@H]1O[C@H](COP(=O)(O)OP(=O)(O)OP(=O)(O)O)C(O)C1O (some centres unmarked) ?
0.2332

====

test system: Rabbit Reticulocyte Lysate; assay: In vitro translation screen, firefly Luciferase modRNA (luciferase assay, relative light units); format: biochemical; conditions: Table 20; 250 ng modRNA, 45 min, 30° C.
Kindly state Luc Expression (RLUs) for each of the entries shown.
In your response, the unit should come after the numeric value.

Record excerpt, results attached:
O=c1[nH]cc([C@@H]2O[C@H](COP(O)(=S)OP(=O)(O)OP(=O)(O)O)C(O)C2O)c(=O)[nH]1 (stereo in doubt)
5221 RLUs
Nc1nc(=O)n([C@@H]2O[C@H](COP(=O)(O)OP(=O)(O)OP(=O)(O)O)C(O)C2O)cc1Br (stereo in doubt)
194900 RLUs
CCn1cc([C@@H]2O[C@H](COP(=O)(O)OP(=O)(O)OP(=O)(O)O)C(O)C2O)c(=O)[nH]c1=O (stereo in doubt)
122 RLUs

Hey, can you go through the list below and give me Luc Expression (RLUs) for every item?
1. Nc1nc(=O)n([C@@H]2O[C@H](COP(=O)(O)OP(=O)(O)OP(=O)(O)O)C(O)C2O)cc1C(F)(F)F (stereo in doubt)
2. Nc1nc(=O)n([C@@H]2O[C@H](COP(=O)(O)OP(=O)(O)OP(=O)(O)O)C(O)C2O)cc1CO (stereo in doubt) [00901014005 (350), 5-Hydroxymethyl-CTP]
3. O=c1[nH]c(=O)n([C@@H]2O[C@H](COP(=O)(O)OP(=O)(O)OP(=O)(O)O)C(O)C2O)cc1Br (stereo in doubt)
4. CCCn1cc([C@@H]2O[C@H](COP(=O)(O)OP(=O)(O)OP(=O)(O)O)C(O)C2O)c(=O)[nH]c1=O (stereo in doubt)
5. COC(=O)COc1cn([C@@H]2O[C@H](COP(=O)(O)OP(=O)(O)OP(=O)(O)O)C(O)C2O)c(=O)[nH]c1=O (stereo in doubt)
6. NC/C=C/c1cn([C@@H]2O[C@H](COP(=O)(O)OP(=O)(O)OP(=O)(O)O)C(O)C2O)c(=O)nc1N (stereo in doubt)
7. Cc1cn([C@@H]2O[C@H](COP(=O)(O)OP(=O)(O)OP(=O)(O)O)C(O)C2O)c(=S)[nH]c1=O (stereo in doubt)

1: 23340 RLUs; 2: 154000 RLUs; 3: 218500 RLUs; 4: 140 RLUs; 5: 162 RLUs; 6: 887 RLUs; 7: 235 RLUs

====

Kindly state EPO In Vitro Transcription yield for each of the entries shown.
target: T7 RNA polymerase (Escherichia phage T7); assay: In vitro transcription yields of modified mRNA; type: biochemical; conditions: EPO mRNA made with the modified NTP(s)
Answers are plain numbers, in mg.

Record excerpt, results attached:
Nc1nc(=O)n([C@@H]2O[C@H](COP(=O)(O)OP(=O)(O)OP(=O)(O)O)C(O)C2O)cc1C(F)(F)F (stereo in doubt)
0.7886
Cn1c(=N)ccn([C@@H]2O[C@H](COP(=O)(O)OP(=O)(O)OP(=O)(O)O)C(O)C2O)c1=O (stereo partly drawn)
0.0060
CCn1cc([C@@H]2O[C@H](COP(=O)(O)OP(=O)(O)OP(=O)(O)O)C(O)C2O)c(=O)[nH]c1=O (stereo in doubt)
1.095
Cn1c(=O)[nH]cc([C@@H]2O[C@H](COP(=O)(O)OP(=O)(O)OP(=O)(O)O)C(O)C2O)c1=O (stereo partly drawn)
0.0125
Nc1nc(N)c2ncn([C@@H]3O[C@H](COP(=O)(O)OP(=O)(O)OP(=O)(O)O)C(O)C3O)c2n1 (stereo partly drawn)
0.2612

Could you share which EPO In Vitro Transcription yield value was measured for Nc1ccn([C@@H]2O[C@H](COP(=O)(O)OP(=O)(O)OP(=O)(O)O)C(O)C2O)c(=S)n1 (stereo partly drawn) ?
0.0061
